Below, each entry is listed alongside its reported GI50.
System: SK-MEL-2
protocol-summary: NCI tumour cell line growth inhibition, 48 h
The source made the active and inactive calls. Cut-off read from the data, not from the text of the source: active = GI50 up to about 1.1 µM and inactive = higher.

Consider the reported GI50 for these compounds:
>>> df
                                   compound  target_system          assay_value
0  O=C(Nc1cc(Cl)c(Cl)cc1Cl)C(=O)C(C(=O)c1ccc2ccccc2c1)C1OC(=O)c2ccccc21 (stereo not given)       SK-MEL-2   14.4 µM (inactive)
1  COc1ccc(-c2nc(-c3cc4c(ccc5ccccc54)oc3=O)cs2)cc1       SK-MEL-2  > 100 µM (inactive)
2  N=C(N)NS(=O)(=O)c1ccc(Nc2c3ccccc3nc3c(C(=O)N4CCN(CCO)CC4)cccc23)cc1       SK-MEL-2  > 100 µM (inactive)
3  COc1cc2c(cc1OCCCCCCCCN1C(=O)c3cccc4cccc(c34)C1=O)N=C[C@@H]1CCCN1C2=O       SK-MEL-2   14.6 µM (inactive)

# context switch: different compound, same GI50
Qu. Entry `Cc1nc2c(o1)/C(=N\c1ccccc1)c1ccccc1/C2=N/c1ccccc1` : reported GI50 = ?
Ans. 61.9 µM (inactive)

* * *

Below, each entry is listed alongside its reported GI50.
Test system: SNB-19
protocol-summary: NCI tumour cell line growth inhibition, 48 h
Active and inactive are the calls of the source. Rule as the data show it: active = GI50 up to about 1.1 µM and inactive = higher.

Consider the reported GI50 for these molecules:
In [3]: df
Out[3]:
                                   molecule          assay_value
0    Clc1ccc(-c2nc(-c3ccc(Cl)cc3)[s+]s2)cc1   50.5 µM (inactive)
1  CCOC(=O)c1ccc(NCc2ccc3nc(OC)c(OC)nc3c2)cc1  > 100 µM (inactive)

Qu. Entry `CCOC(=O)c1ccc(-n2cnc(-c3ccc([N+](=O)[O-])cc3)c2)cc1` : reported GI50 = ?
Ans. 35.7 µM (inactive)

Qu. Check CCN(CC)C1Oc2cc3c(cc2C(c2cc(OC)c(O)c(OC)c2)C1C)OCO3 (stereo unspecified) too.
Ans. 16.2 µM (inactive)

Qu. Check C=C1CCCC2[C@](C)(CC3=C(Cl)C(=O)C=C(OC)C3=O)C(C)CC[C@]12C (stereo partly specified) too.
Ans. 7.21 µM (inactive)

Qu. Check NC(CO)c1ccc(OCc2ccccc2)cc1 (stereo unspecified) too.
Ans. > 63.7 µM (inactive)

* * *

Tested on: 786-0
protocol-summary: NCI tumour cell line growth inhibition, 48 h
The source made the active and inactive calls. Rule as the data show it: active = GI50 up to about 1.1 µM and inactive = higher.
property-name: GI50

Consider the reported GI50 for these molecules:
>>> print(df.to_string())
                                   molecule  target_system  property_name          assay_value
0  O=C(Nc1cc(Cl)c(Cl)cc1Cl)C(=O)C(C(=O)c1ccc2ccccc2c1)C1OC(=O)c2ccccc21 (stereo not drawn)          786-0           GI50   8.11 µM (inactive)
1  COC1/C(=C\c2ccccc2I)c2ccccc2N1C(C)=O (stereo not drawn)          786-0           GI50   18.1 µM (inactive)
2    Cc1ccc(NC(=O)/C(C#N)=C/c2ccccc2)c(C)c1          786-0           GI50  > 100 µM (inactive)
3  O=C(CSc1c2ccccc2nc2ccccc12)Nc1ccccc1-c1ccccc1NC(=O)CSc1c2ccccc2nc2ccccc12          786-0           GI50   6.76 µM (inactive)
4              Cc1cc2c(=O)[nH]nc(N)c2c(N)n1          786-0           GI50  > 100 µM (inactive)
5  C=CCC1(C(=O)OC)CCC/C(=N\O)C1 (stereo not drawn)          786-0           GI50   > 10 µM (inactive)

Qu. Entry `Nc1cc(OCC2CCCCC2)nc(N)n1` : reported GI50 = ?
Ans. > 100 µM (inactive)

Qu. Check N#CC(C#N)=Cc1ccc(C(O)P(=O)(O)O)cc1 (stereo not drawn) too.
Ans. > 100 µM (inactive)

Qu. Check `CCCCOC(=O)Nc1ccc(S(=O)(=O)Nc2ccccc2Cl)cc1` too.
Ans. 21.5 µM (inactive)

Qu. Check CCC12CCCNC1c1c(n(C)c3ccccc13)C(C(=O)OC)C2 (stereo not drawn) too.
Ans. 93.8 µM (inactive)

Qu. Check CCOC(=O)c1ccc2c(c1)nc1n2C(c2c(F)cccc2F)SC1 (stereo not drawn) too.
Ans. 23.4 µM (inactive)

* * *

Test system: K562
protocol-summary: NCI tumour cell line growth inhibition, 48 h
Calls of active or inactive are those of the source. No stated cut-off is given here; in the data, active = GI50 up to about 1.1 µM and inactive = higher.
Respond only with the outcome that fits, drawn from 1 for active, 0 for inactive

Before answering, review these 10 worked examples.
In [3]: df
Out[3]:
                                   molecule  assigned_label
0  COC(=O)Nc1nc2cc(S(=O)(=O)n3nnc4ccccc43)ccc2[nH]1               0
1             O=C(O)C(Cl)(c1ccccc1)c1ccccc1               0
2  O=C(Cc1ccccc1)Oc1ccc2c(-c3ccccc3)c(C(=O)Nc3ccc(Cl)cc3)c(=O)oc2c1               0
3  COC(=O)/C(=C\C(=O)c1ccc(Br)cc1)NN=C(c1ccccc1)c1ccccc1               0
4              O=[N+]([O-])c1cc(CCl)ccc1CCl               0
5  Cc1cccc(C)c1NC(=O)C(=O)CC(=O)/C=C/c1ccccc1               0
6  CCCCCCCCOCC(O)COC(C)C (centres undefined)               0
7            O=c1nc(-c2ccccc2)scc1-c1ccccc1               0
8                     COCCNc1cncc(C(N)=O)c1               0
9  NC(CO)c1ccc(OCc2ccccc2)cc1 (centres undefined)               0

Qu. Which outcome was entered for the molecule `O=C(NCCCNCCN1C(=O)c2cccc3cc([N+](=O)[O-])cc(c23)C1=O)c1cc(-c2ccccc2)nc2ccccc12` in this test?
Ans. 1

Qu. Check Fc1cccc(C2SCc3nc4ccccc4n32)c1F (centres undefined) too.
Ans. 0

Qu. Check CCOC(=O)C1Nc2ccccc2[C@H]2OCC[C@@H]12 (some centres undefined) too.
Ans. 0

* * *

Test system: MOLT-4
protocol-summary: NCI tumour cell line growth inhibition, 48 h
Active and inactive are the calls of the source. Rule as the data show it: active = GI50 up to about 1.1 µM and inactive = higher.
Respond only with the outcome that fits, drawn from active, inactive

Before answering, review these 2 worked examples.
compound	assigned-label
CCOC(=O)c1ccc(C(=O)C(C(C)=O)C(=O)OC(C)(C)C)n1C (centres undefined)	inactive
O=C(NCCCNCCN1C(=O)c2cccc3cc([N+](=O)[O-])cc(c23)C1=O)c1cc(-c2ccccc2)nc2ccccc12	active

Qu. Which outcome was entered for the compound COc1cc(O)c(C(=O)/C=C/c2ccc(O)cc2)cc1Oc1ccc(C(=O)/C=C/c2ccc(O)cc2)c(O)c1 [RHUSCHALCONE IV] in this test?
Ans. inactive

Qu. Check `O=C(CN1CCCCC1)c1ccc2c(c1)Sc1ccccc1O2` too.
Ans. inactive

Qu. Check `CCOC(=O)C1=C(Nc2ccc(Cl)cc2Cl)OC/C1=N\NS(=O)(=O)c1ccc(C)cc1` too.
Ans. inactive

* * *

System: RXF 393
protocol-summary: NCI tumour cell line growth inhibition, 48 h
Active and inactive are the calls of the source. No stated cut-off is given here; in the data, active = GI50 up to about 1.1 µM and inactive = higher.
Below, each entry is listed alongside its reported GI50.

Consider the reported GI50 for these compounds:
compound	target-system	GI50
O=C(O)CC[N+]1=CCC(c2ccccc2)(c2ccccc2)O1	RXF 393	> 100 µM (inactive)
C#CCn1c(I)cc2c(c1=O)COC(=O)[C@]2(O)CC	RXF 393	> 100 µM (inactive)
CCOC(=O)C1=C(Nc2ccc(Cl)cc2Cl)OC/C1=N\NS(=O)(=O)c1ccc(C)cc1	RXF 393	> 100 µM (inactive)
Cc1ccc(C(=O)O)c(CC2Cc3c(C)cccc3C2=O)c1 (stereo not given)	RXF 393	> 100 µM (inactive)
C=C(C)C1CC=C(C)[C@](O)(C2(O)C[C@H](C(=C)C)CC=C2C)C1 (stereo not given in full)	RXF 393	> 100 µM (inactive)
CC(=O)OCC(=O)O[C@@H]1[C@H]2[C@@H](OC(=O)c3ccccc3)[C@@H](C)C[C@]2(O)[C@H](OC(C)=O)[C@@]2(C)C(OC(C)=O)[C@]1(OC(C)=O)C[C@H]1C(=O)C(C)(C)C[C@@H]12 (stereo not given in full)	RXF 393	> 50 µM (inactive)
CCOC(=O)c1ccc(C(=O)C(C(C)=O)C(=O)OC(C)(C)C)n1C (stereo not given)	RXF 393	> 100 µM (inactive)
O=C1OC(c2ccccc2)=N/C1=C/c1cccs1	RXF 393	> 100 µM (inactive)
COc1cc(O)c(C(=O)/C=C/c2ccc(O)cc2)cc1Oc1ccc(C(=O)/C=C/c2ccc(O)cc2)c(O)c1	RXF 393	2.48 µM (inactive)
CC(C)C(C/C=C1/CC(CO)(COC(=O)C(C)(C)C)OC1=O)C(C)C (stereo not given)	RXF 393	15.6 µM (inactive)

Qu. Entry `Cc1csc(-n2c(C)nc3cc(Cl)ccc3c2=O)n1` : reported GI50 = ?
Ans. > 100 µM (inactive)

Qu. Check `COC(=O)[C@H](CC(C)C)NC1=C(Cl)C(=O)c2c(O)ccc(O)c2C1=O` too.
Ans. > 10 µM (inactive)

Qu. Check `O=C(O)CCSCCCN1C(=O)c2ccccc2C1=O` too.
Ans. > 100 µM (inactive)

Qu. Check COc1cc(C2c3cc4c(cc3OC(NCCO)C2C)OCO4)cc(OC)c1O (stereo not given) too.
Ans. 20.4 µM (inactive)

Qu. Check OC1C2C=CCC1CCC2 (stereo not given) too.
Ans. > 100 µM (inactive)

Qu. Check `COC(=O)/C=C1/OC(c2ccccc2)=C(Br)C1=O` too.
Ans. 48.2 µM (inactive)

Qu. Check `CC(C)CCC/C(CBr)=C(\Cl)CCl` too.
Ans. 1.57 µM (inactive)

Qu. Check `O=C(Cc1ccc([N+](=O)[O-])c([N+](=O)[O-])c1CC(=O)C(=O)Nc1cc(Cl)ccc1Cl)C(=O)Nc1cc(Cl)ccc1Cl` too.
Ans. 30.8 µM (inactive)

Qu. Check `COC(=O)Nc1nc2cc(S(=O)(=O)n3nnc4ccccc43)ccc2[nH]1` too.
Ans. 14.6 µM (inactive)

Qu. Check `CSc1cc(Cl)c(C)cc1S(=O)(=O)NC(=O)NNc1cnc2ccccc2n1` too.
Ans. > 100 µM (inactive)
